- subject_of_test: human β2 adrenergic receptor (Homo sapiens, UniProt P07550)
- Sequence (P07550 whole entry): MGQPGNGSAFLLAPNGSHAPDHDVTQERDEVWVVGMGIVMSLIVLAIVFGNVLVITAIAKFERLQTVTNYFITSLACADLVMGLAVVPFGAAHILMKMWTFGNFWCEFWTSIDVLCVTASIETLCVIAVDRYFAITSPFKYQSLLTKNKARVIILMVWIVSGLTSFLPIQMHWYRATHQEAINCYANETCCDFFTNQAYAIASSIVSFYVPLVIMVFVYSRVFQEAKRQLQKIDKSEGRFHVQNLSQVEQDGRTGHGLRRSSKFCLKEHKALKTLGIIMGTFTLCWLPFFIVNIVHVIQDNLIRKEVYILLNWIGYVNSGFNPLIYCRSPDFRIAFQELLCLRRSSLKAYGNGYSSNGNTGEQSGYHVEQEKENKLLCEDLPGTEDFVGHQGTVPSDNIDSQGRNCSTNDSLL
- run_description: Cell based cAMP assay in CHO cells recombinantly expressing the human β2 adrenergic receptor (cAMP-Flashplate)
- reported_conditions: CHOhβ2 cells, 1 hour incubation
Listed next: entries and their corresponding pEC50.
Reminder that pEC50 means the negative base-10 logarithm of the concentration expressed in mol/L.

Completed entries (count: 3):
>>> print(df.to_string())
                                   molecule  observed
0  COc1cccc(CNC(=O)c2cc3cc(C[C@@H](C)NC[C@H](O)c4ccc(O)c(CO)c4)ccc3[nH]2)c1 [Example 4]      9.92
1  C[C@H](Cc1ccc2[nH]c(C(=O)N(C)Cc3ccccc3)cc2c1)NC[C@H](O)c1ccc(O)c(CO)c1 [Example 22]     10.70
2  COc1cccc(OC)c1CNC(=O)c1cc2cc(C[C@@H](C)NC[C@H](O)c3ccc(O)c(CO)c3)ccc2[nH]1 [Example 3]     10.30

Exercise: Would you kindly share the measured pEC50 for C[C@H](Cc1ccc2[nH]c(C(=O)NCc3ccc(C(F)(F)F)cc3)cc2c1)NC[C@H](O)c1ccc(O)c(CO)c1 [Example 2] ?
Solution: 9.10

* * *

- subject_of_test: human β2 adrenergic receptor (Homo sapiens, UniProt P07550)
- run_description: Cell based cAMP assay in CHO cells recombinantly expressing the human β2 adrenergic receptor (cAMP-Flashplate)
- reported_conditions: CHOhβ2 cells, 1 hour incubation
Listed next: entries and their corresponding pEC50.
Reminder that pEC50 means the negative base-10 logarithm of the concentration expressed in mol/L.

Completed entries (count: 3):
                               entry_smiles  observed
0  CC[C@H](Cc1ccc2[nH]c(C(=O)NCc3ccccc3)cc2c1)NC[C@H](O)c1ccc(O)c(CO)c1      9.42
1  CCn1c(C(=O)NCc2ccc(Cl)cc2)cc2cc(C[C@@H](C)NC[C@H](O)c3ccc(O)c(CO)c3)ccc21      8.40
2  COc1ccccc1CNC(=O)c1cc2cc(C[C@@H](C)NC[C@H](O)c3ccc(O)c(CO)c3)ccc2[nH]1     10.70

Moving on to another molecule below.
Exercise: Would you kindly share the measured pEC50 for COc1cc(O)cc(OC)c1CNC(=O)c1cc2cc(C[C@@H](C)NC[C@H](O)c3ccc(O)c(CO)c3)ccc2[nH]1 ?
Solution: 10.70
